Can you tell me Neuritogenic effect, 3 µM NPY fragment (% of control) for the items I'm about to list?
molecular target: NCAM on rat hippocampal neurons (rat, UniProt P13596 20-858); experiment: cell-based or functional assay
Sequence (P13596 20-858): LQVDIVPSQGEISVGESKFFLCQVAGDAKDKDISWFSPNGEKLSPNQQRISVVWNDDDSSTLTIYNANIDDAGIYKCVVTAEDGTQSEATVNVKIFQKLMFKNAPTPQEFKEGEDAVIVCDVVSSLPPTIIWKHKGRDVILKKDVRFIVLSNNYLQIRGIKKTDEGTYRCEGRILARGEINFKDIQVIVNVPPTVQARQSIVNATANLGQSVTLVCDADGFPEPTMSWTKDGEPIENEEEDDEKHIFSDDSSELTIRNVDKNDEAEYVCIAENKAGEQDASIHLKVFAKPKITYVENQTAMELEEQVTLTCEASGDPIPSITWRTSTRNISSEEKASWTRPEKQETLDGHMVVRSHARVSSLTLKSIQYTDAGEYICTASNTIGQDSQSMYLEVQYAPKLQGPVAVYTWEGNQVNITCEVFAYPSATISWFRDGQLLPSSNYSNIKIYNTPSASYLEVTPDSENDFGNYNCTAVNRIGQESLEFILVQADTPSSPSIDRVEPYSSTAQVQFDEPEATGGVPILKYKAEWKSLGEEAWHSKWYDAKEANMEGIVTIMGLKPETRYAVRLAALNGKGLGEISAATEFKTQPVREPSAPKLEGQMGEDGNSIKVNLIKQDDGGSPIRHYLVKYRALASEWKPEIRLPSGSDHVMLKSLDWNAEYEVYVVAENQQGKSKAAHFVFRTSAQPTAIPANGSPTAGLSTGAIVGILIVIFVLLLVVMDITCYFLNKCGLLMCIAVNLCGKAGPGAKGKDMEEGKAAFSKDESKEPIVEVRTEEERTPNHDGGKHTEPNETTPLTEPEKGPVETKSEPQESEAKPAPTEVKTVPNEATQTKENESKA
Ends that are not written are not given here.

# per-item lookup of Neuritogenic effect, 3 µM NPY fragment (% of control); items listed below
1. ITRQRY-NH2 (also: Tyr36 (pos 6): amidated per mods, acetylation) [NPY31-36]
2. YSALRHYINLITRQ [NPY21-34]
3. RQRTILNIYHRLASYYRAMDEAPADEGPNDPKS [NPY3-35 reversed sequence]
4. ALRHYINLITRQRY-NH2 [NPY23-36]

Reply:
1. 91.8 % of control
2. 97.5 % of control
3. 285 % of control
4. 156 % of control
